target: T1, hGARP-proTGFβ1 (Homo sapiens, UniProt P01137); experiment: MSD-SET solution equilibrium titration binding; details: MSD-SET at equilibrium, hIgG4, human complex; in M
T1 construct: made in house
T1 sequence (P01137 30-390): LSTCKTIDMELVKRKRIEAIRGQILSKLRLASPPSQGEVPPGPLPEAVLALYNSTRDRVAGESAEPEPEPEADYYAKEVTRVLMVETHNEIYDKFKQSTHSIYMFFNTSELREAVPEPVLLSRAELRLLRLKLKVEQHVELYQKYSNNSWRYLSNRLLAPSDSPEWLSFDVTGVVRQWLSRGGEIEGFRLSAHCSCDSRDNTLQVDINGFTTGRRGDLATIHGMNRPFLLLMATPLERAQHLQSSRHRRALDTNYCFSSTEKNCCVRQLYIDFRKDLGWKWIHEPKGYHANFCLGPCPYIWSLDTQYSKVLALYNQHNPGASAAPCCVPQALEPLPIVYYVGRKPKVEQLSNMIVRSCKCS
T1 sequence (Q14392 20-627 partner limits assumed): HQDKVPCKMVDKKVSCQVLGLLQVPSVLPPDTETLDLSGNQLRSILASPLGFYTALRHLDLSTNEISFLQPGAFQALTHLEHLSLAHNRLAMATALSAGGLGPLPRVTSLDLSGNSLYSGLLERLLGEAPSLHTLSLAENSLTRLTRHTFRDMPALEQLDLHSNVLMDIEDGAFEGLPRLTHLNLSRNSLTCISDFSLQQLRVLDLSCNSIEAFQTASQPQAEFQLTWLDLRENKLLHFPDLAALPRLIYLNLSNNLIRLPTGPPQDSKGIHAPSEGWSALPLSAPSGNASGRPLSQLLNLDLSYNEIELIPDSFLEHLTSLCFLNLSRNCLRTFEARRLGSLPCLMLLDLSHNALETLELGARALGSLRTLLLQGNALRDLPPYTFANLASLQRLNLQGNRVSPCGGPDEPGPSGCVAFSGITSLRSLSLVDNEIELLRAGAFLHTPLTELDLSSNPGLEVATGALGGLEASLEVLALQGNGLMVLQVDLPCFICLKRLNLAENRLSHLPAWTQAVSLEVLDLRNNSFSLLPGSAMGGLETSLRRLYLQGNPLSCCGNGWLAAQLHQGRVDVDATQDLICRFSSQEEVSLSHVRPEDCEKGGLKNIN
measured endpoint: (E) hGARP, Cell-associated proTGFβ1 KD
Lab note: record the figure alone, no unit after it.

GET /values?readout=(E) hGARP, Cell-associated proTGFβ1 KD&item= Ab32: monoclonal antibody; VH SEQ ID NO: 140, VL SEQ ID NO: 15 (antibody, V domains shown) VH: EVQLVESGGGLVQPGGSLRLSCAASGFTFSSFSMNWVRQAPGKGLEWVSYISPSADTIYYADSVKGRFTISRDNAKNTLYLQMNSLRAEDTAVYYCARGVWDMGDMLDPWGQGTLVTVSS VL: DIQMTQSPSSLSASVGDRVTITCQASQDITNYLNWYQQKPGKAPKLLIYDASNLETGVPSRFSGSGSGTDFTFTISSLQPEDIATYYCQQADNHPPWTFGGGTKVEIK
1.50E−11

Others:
GET /values?readout=(E) hGARP, Cell-associated proTGFβ1 KD&item= Ab22: monoclonal antibody; VH SEQ ID NO: 130, VL SEQ ID NO: 15 (antibody, V domains shown) VH: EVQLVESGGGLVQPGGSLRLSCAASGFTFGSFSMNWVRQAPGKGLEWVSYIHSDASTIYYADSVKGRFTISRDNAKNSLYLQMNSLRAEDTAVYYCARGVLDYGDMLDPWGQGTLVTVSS VL: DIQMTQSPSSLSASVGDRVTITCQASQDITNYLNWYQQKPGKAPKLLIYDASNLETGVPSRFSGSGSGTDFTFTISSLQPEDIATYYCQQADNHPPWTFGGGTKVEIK
2.70E−11

GET /values?readout=(E) hGARP, Cell-associated proTGFβ1 KD&item= Ab24: monoclonal antibody; VH SEQ ID NO: 132, VL SEQ ID NO: 15 (antibody, V domains shown) VH: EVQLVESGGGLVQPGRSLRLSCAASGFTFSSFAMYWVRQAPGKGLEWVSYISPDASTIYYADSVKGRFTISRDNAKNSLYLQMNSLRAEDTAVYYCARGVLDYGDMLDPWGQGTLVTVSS VL: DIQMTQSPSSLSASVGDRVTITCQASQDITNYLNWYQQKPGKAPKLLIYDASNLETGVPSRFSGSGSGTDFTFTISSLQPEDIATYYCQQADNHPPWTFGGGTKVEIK
1.90E−11

GET /values?readout=(E) hGARP, Cell-associated proTGFβ1 KD&item= Ab12: monoclonal antibody; VH SEQ ID NO: 237, VL SEQ ID NO: 241 (antibody, V domains shown) VH: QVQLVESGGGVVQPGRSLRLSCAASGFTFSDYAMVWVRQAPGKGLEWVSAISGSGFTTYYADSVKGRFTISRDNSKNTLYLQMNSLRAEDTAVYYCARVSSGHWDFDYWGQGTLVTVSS VL: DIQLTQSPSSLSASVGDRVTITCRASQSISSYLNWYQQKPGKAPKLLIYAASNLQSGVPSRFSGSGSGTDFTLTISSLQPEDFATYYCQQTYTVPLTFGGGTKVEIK
1.70E−09

GET /values?readout=(E) hGARP, Cell-associated proTGFβ1 KD&item= Ab30: monoclonal antibody; VH SEQ ID NO: 138, VL SEQ ID NO: 15 (antibody, V domains shown) VH: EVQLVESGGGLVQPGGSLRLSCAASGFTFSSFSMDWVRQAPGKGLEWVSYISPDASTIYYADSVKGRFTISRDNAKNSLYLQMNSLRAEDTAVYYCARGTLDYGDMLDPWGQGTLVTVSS VL: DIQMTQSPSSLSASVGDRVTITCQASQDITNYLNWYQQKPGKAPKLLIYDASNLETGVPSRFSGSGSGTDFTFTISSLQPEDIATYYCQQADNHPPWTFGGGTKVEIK
2.20E−11

Data origin, for the record: patent US11130803B2
